target: L25A PETNR (Enterobacter cloacae, UniProt P71278, L26A); conditions: T0 = 298 K, fit of kobs1 (5–40 °C) to eq 1
Sequence (P71278 entry or part of it L26A): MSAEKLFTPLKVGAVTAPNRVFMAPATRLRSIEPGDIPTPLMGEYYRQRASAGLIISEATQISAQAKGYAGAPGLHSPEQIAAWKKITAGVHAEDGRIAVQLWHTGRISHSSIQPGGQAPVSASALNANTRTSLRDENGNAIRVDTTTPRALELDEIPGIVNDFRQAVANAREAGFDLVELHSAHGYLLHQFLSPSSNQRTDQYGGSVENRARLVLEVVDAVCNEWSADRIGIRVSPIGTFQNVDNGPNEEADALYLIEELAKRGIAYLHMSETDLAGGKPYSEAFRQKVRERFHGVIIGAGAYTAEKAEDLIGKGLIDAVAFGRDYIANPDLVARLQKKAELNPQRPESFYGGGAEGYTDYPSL
Overview of recorded ΔHT0^⧧ for various molecules

- molecule: "[2H][C@@H]1C=CN([C@@H]2O[C@H](COP(=O)(O)OP(=O)(O)OC[C@H]3O[C@@H](n4cnc5c(N)ncnc54)[C@H](O)[C@@H]3O)[C@@H](O)[C@H]2O)C=C1C(N)=O [(R)-[4-^2H]-NADH]"
  ΔHT0^⧧ / kJ mol^–1: 40.3
- molecule: "NC(=O)C1=CN([C@@H]2O[C@H](COP(=O)(O)OP(=O)(O)OC[C@H]3O[C@@H](n4cnc5c(N)ncnc54)[C@H](OP(=O)(O)O)[C@@H]3O)[C@@H](O)[C@H]2O)C=CC1"
  ΔHT0^⧧ / kJ mol^–1: 23.3
- molecule: "NC(=O)C1=CN([C@@H]2O[C@H](COP(=O)(O)OP(=O)(O)OC[C@H]3O[C@@H](n4cnc5c(N)ncnc54)[C@H](O)[C@@H]3O)[C@@H](O)[C@H]2O)C=CC1"
  ΔHT0^⧧ / kJ mol^–1: 33.6
- molecule: "[2H][C@@H]1C=CN([C@@H]2O[C@H](COP(=O)(O)OP(=O)(O)OC[C@H]3O[C@@H](n4cnc5c(N)ncnc54)[C@H](OP(=O)(O)O)[C@@H]3O)[C@@H](O)[C@H]2O)C=C1C(N)=O [(R)-[4-^2H]-NADPH]"
  ΔHT0^⧧ / kJ mol^–1: 31.9
